Tested on: NCI-H446 (Small Cell Lung Carcinoma)
Test: combination Emax (second highest fraction inhibited in the dose matrix, 72 h); higher = more inhibition; extreme values may be limits of the assay
Ranges used to classify combination Emax: I (below 0.7), II (0.7 to below 0.9), III (0.9 or more)

Cc1cc2ncnn2cc1Nc1ncc2c(n1)n(C1CCOCC1)c(=O)n2C [AZD7648] + CCN(CCO)CCCOc1ccc2c(Nc3cc(CC(=O)Nc4cccc(F)c4)[nH]n3)ncnc2c1 [AZD2811] (first compound max 10 µM, 7x7, partner max 1 µM) | II
Cc1c2c(nn1C)CSCc1cc(n(C)n1)CSc1cc(c3ccccc3c1)OCCCc1c(C(=O)O)n(C)c3c-2c(Cl)ccc13 [AZD5991] + C=CCn1c(=O)c2cnc(Nc3ccc(N4CCN(C)CC4)cc3)nc2n1-c1cccc(C(C)(C)O)n1 [AZD1775] (first compound max 1 µM, partner max 1 µM) | III

Which combination Emax band matches CN(CCO)CC[C@H](CSc1ccccc1)Nc1ccc(S(=O)(=O)NC(=O)c2ccc(N3CCC([C@@H](O)c4ccccc4-c4ccc(Cl)cc4)CC3)cc2)cc1S(=O)(=O)C(F)(F)F [AZD4320] + C[C@@H]1COCCN1C2=NC(=NC(=C2)C3(CC3)[S@](=N)(=O)C)C4=C5C=CNC5=NC=C4 [AZD6738] (first compound max 1 µM, 7x7, partner max 10 µM) ?
III

Which combination Emax band matches CC1(C)CCC(CN2CCN(c3ccc(C(=O)NS(=O)(=O)c4ccc(NCC5CCOCC5)c([N+](=O)[O-])c4)c(Oc4cnc5[nH]ccc5c4)c3)CC2)=C(c2ccc(Cl)cc2)C1 [Venetoclax] + Cn1cnc2c(F)c(Nc3ccc(Br)cc3Cl)c(C(=O)NOCCO)cc21 [Selumetinib] (first compound max 1 µM, 7x7, partner max 3 µM) ?
I

Which combination Emax band matches COc1nnc2ccc(N3CCC(c4ccc(OCCN5CCN(C)C(=O)[C@H]5C)cc4)CC3)nn12 [AZD5153] + Cc1c2c(nn1C)CSCc1cc(n(C)n1)CSc1cc(c3ccccc3c1)OCCCc1c(C(=O)O)n(C)c3c-2c(Cl)ccc13 [AZD5991] (first compound max 1 µM, 7x7, partner max 1 µM) ?
III

Which combination Emax band matches CN(C)CCCOc1ccc(-c2ccc3ncc4c(c3c2)n(C2CCOCC2)c(=O)n4C)cn1 [AZD0156] + C=CCn1c(=O)c2cnc(Nc3ccc(N4CCN(C)CC4)cc3)nc2n1-c1cccc(C(C)(C)O)n1 [AZD1775] (first compound max 1 µM, partner max 1 µM) ?
II

Which combination Emax band matches CN(CCO)CC[C@H](CSc1ccccc1)Nc1ccc(S(=O)(=O)NC(=O)c2ccc(N3CCC([C@@H](O)c4ccccc4-c4ccc(Cl)cc4)CC3)cc2)cc1S(=O)(=O)C(F)(F)F [AZD4320] + C[C@@H](Nc1cc(F)cc(F)c1)c1cc(C(=O)N(C)C)cc2c(=O)cc(N3CCOCC3)oc12 [AZD8186] (first compound max 1 µM, 7x7, partner max 3 µM) ?
II

Which combination Emax band matches Cc1c2c(nn1C)CSCc1cc(n(C)n1)CSc1cc(c3ccccc3c1)OCCCc1c(C(=O)O)n(C)c3c-2c(Cl)ccc13 [AZD5991] + CN(C)CCCOc1ccc(-c2ccc3ncc4c(c3c2)n(C2CCOCC2)c(=O)n4C)cn1 [AZD0156] (first compound max 1 µM, 7x7, partner max 1 µM) ?
I

Which combination Emax band matches CC1(C)CCC(CN2CCN(c3ccc(C(=O)NS(=O)(=O)c4ccc(NCC5CCOCC5)c([N+](=O)[O-])c4)c(Oc4cnc5[nH]ccc5c4)c3)CC2)=C(c2ccc(Cl)cc2)C1 [Venetoclax] + C=CCn1c(=O)c2cnc(Nc3ccc(N4CCN(C)CC4)cc3)nc2n1-c1cccc(C(C)(C)O)n1 [AZD1775] (first compound max 1 µM, partner max 1 µM) ?
III

Which combination Emax band matches CC(=O)c1c(C)c2cnc(Nc3ccc(N4CCNCC4)cn3)nc2n(C2CCCC2)c1=O [Palbociclib] + CC1(C)CCC(CN2CCN(c3ccc(C(=O)NS(=O)(=O)c4ccc(NCC5CCOCC5)c([N+](=O)[O-])c4)c(Oc4cnc5[nH]ccc5c4)c3)CC2)=C(c2ccc(Cl)cc2)C1 [Venetoclax] (first compound max 10 µM, 7x7, partner max 1 µM) ?
I
